Value source: patent US20170122958A1

TARGET_SYSTEM: Brd2(1) (Homo sapiens, UniProt P25440)
Construct: Plasmids of the eight single BET bromodomain constructs Brd2(1), Brd2(2), Brd3(1), Brd3(2); His6 (N); made in house; host or cells: E. coli BL21(DE3)
Sequence (P25440 74-180 limits assumed): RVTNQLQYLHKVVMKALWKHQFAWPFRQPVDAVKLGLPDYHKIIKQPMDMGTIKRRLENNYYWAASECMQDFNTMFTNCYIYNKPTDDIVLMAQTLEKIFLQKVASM
TEST: DSF thermal shift
Format: binding
REPORTED_CONDITIONS: wild type
Hi! Just check whether ΔTm Brd2(1) is below 2 K. Below gives rule met, equal or above gives rule not met.

Request: # check: ΔTm Brd2(1) < 2 K for CN1Cc2cc(NS(=O)(=O)c3ccc(C(C)(C)C)cc3)ccc2NC1=O
Result: rule met

Request: # check: ΔTm Brd2(1) < 2 K for COC(=O)CC1(C)N=C(c2ccc(Cl)cc2)c2cc(OC)ccc2-n2c(C)nnc21 (racemic)
Result: rule not met

Request: # check: ΔTm Brd2(1) < 2 K for COC(=O)CC1N=C(c2ccc(Cl)cc2)c2cc(OC)cc(C)c2-n2c(C)nnc21 (stereo not shown)
Result: rule met

Request: # check: ΔTm Brd2(1) < 2 K for COc1ccc(S(=O)(=O)Nc2ccc3c(c2)CN(C)C(=O)N3)c(OC)c1
Result: rule not met

Request: # check: ΔTm Brd2(1) < 2 K for COc1cc(C)ccc1S(=O)(=O)Nc1ccc2c(c1)CN(C)C(=O)N2
Result: rule not met

Request: # check: ΔTm Brd2(1) < 2 K for COC(=O)CC1N=C(c2ccc(Cl)cc2C)c2cc(OC)ccc2-n2c(C)nnc21 (racemic)
Result: rule not met

Request: # check: ΔTm Brd2(1) < 2 K for COC(=O)CC1N=C(c2ccc(Cl)c(C)c2)c2cc(OC)ccc2-n2c(C)nnc21 (racemic)
Result: rule met

Request: # check: ΔTm Brd2(1) < 2 K for CCC[C@@H](C(=O)OC)[C@@H]1N=C(c2ccc(Cl)cc2)c2cc(OC)ccc2-n2c(C)nnc21 (racemic)
Result: rule met

Request: # check: ΔTm Brd2(1) < 2 K for COC(=O)CC1N=C(c2cc(Cl)ccc2Cl)c2cc(OC)ccc2-n2c(C)nnc21 (stereo not shown)
Result: rule met

Request: # check: ΔTm Brd2(1) < 2 K for COC(=O)[C@H](CC1CC1)[C@@H]1N=C(c2ccc(Cl)cc2)c2cc(OC)ccc2-n2c(C)nnc21 (racemic)
Result: rule met

Request: # check: ΔTm Brd2(1) < 2 K for Cc1cccc(Cl)c1S(=O)(=O)Nc1ccc2c(c1)CN(C)C(=O)N2
Result: rule not met

Request: # check: ΔTm Brd2(1) < 2 K for CCNC(=O)CC1N=C(c2ccc(Cl)cc2)c2cc(OC)cc(C)c2-n2c(C)nnc21 (stereo not shown)
Result: rule met

Request: # check: ΔTm Brd2(1) < 2 K for Cc1cc(C)cc(S(=O)(=O)Nc2ccc3c(c2)CN(C)C(=O)N3)c1
Result: rule not met

Request: # check: ΔTm Brd2(1) < 2 K for CN1Cc2cc(NS(=O)(=O)c3c(Cl)cccc3Cl)ccc2NC1=O
Result: rule met

Request: # check: ΔTm Brd2(1) < 2 K for COC(=O)[C@H](C)[C@@H]1N=C(c2ccc(Cl)cc2)c2cc(OC)ccc2-n2c(C)nnc21 (racemic)
Result: rule not met

Request: # check: ΔTm Brd2(1) < 2 K for CN1Cc2cc(NS(=O)(=O)c3ccccc3-c3ccccc3)ccc2NC1=O
Result: rule not met

---

Task for the reader: assign each of the following compounds its reported ΔTm Brd2(1)*(Tryp097-His).
TARGET_SYSTEM: Brd2(1)*(Trp097His) (Homo sapiens, UniProt P25440, W97H)
Construct: Plasmids of the eight single BET bromodomain constructs Brd2(1), Brd2(2), Brd3(1), Brd3(2); His6 (N); made in house; host or cells: E. coli BL21(DE3)
Sequence (P25440 74-180 W97H limits assumed): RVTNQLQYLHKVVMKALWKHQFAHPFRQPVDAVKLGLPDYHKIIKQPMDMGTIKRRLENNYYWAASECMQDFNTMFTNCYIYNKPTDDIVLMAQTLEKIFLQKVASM
TEST: DSF thermal shift
Type: binding
REPORTED_CONDITIONS: mutant
Description: DSF assays were performed on a LightCycler®480 from Roche or a Mx3005P Real Time PCR machine from Stratagene. […] SYPRO®Orange from Invitrogen Molecular Probes® was used as a reporter dye to monitor the denaturing process of the proteins. […] The temperature was raised with a step of 0.6° C. per minute from 37° C. to 95° C. with the LightCycler®480 collecting 39 measurements per ° C., and 1° C. per minute from 25° C. to 95° C. with Mx3005P, collecting fluorescence readings at the end of each interval. […]
Just the number plus its unit, please.

Request: Short answer please: ΔTm Brd2(1)*(Tryp097-His), Brd2(1)*(Trp097His) (Homo sapiens, UniProt P25440, W97H), entry COC(=O)CC1N=C(c2cc(Cl)ccc2Cl)c2cc(OC)ccc2-n2c(C)nnc21 (stereo not drawn) [Compound 17]
Result: −0.4 ± 0.2 K

Request: Short answer please: ΔTm Brd2(1)*(Tryp097-His), Brd2(1)*(Trp097His) (Homo sapiens, UniProt P25440, W97H), entry CN1Cc2cc(NS(=O)(=O)c3c(Cl)cccc3Cl)ccc2NC1=O [Compound 43]
Result: 0.2 ± 0.2 K

Request: Short answer please: ΔTm Brd2(1)*(Tryp097-His), Brd2(1)*(Trp097His) (Homo sapiens, UniProt P25440, W97H), entry COC(=O)CC1N=C(c2ccc(Cl)c(C)c2)c2cc(OC)ccc2-n2c(C)nnc21 (racemic) [Compound 9]
Result: 0.2 ± 0.2 K

Request: Short answer please: ΔTm Brd2(1)*(Tryp097-His), Brd2(1)*(Trp097His) (Homo sapiens, UniProt P25440, W97H), entry COC(=O)CC1N=C(c2cc(C)ccc2C)c2cc(OC)ccc2-n2c(C)nnc21 (racemic) [Compound 10]
Result: −0.4 ± 0.3 K

Request: Short answer please: ΔTm Brd2(1)*(Tryp097-His), Brd2(1)*(Trp097His) (Homo sapiens, UniProt P25440, W97H), entry COC(=O)CC1N=C(c2cccc3[nH]ccc23)c2cc(OC)ccc2-n2c(C)nnc21 (stereo not drawn) [Compound 18]
Result: 0.6 ± 0.3 K

Request: Short answer please: ΔTm Brd2(1)*(Tryp097-His), Brd2(1)*(Trp097His) (Homo sapiens, UniProt P25440, W97H), entry Cc1cc(C)c(S(=O)(=O)Nc2ccc3c(c2)CN(C)C(=O)N3)c(C)c1 [Compound 42]
Result: 0.2 ± 0.4 K

---

TARGET_SYSTEM: Brd2(2)*(Trp370His) (Homo sapiens, UniProt P25440, W370H)
Construct: Plasmids of the eight single BET bromodomain constructs Brd2(1), Brd2(2), Brd3(1), Brd3(2); His6 (N); made in house; host or cells: E. coli BL21(DE3)
Sequence (P25440 344-453 W370H limits assumed): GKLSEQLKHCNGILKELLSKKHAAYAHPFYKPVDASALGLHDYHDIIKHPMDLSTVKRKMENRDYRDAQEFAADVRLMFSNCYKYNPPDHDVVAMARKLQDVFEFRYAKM
TEST: DSF thermal shift
Assay type: binding
REPORTED_CONDITIONS: mutant
OBSERVED_PROPERTY: ΔTm Brd2(2)*(Tryp370-His) (K)
Report the figure in K without appending any unit label.

Request: Can you look up the measured ΔTm Brd2(2)*(Tryp370-His) of COC(=O)CC1N=C(c2ccc(Cl)c(C)c2)c2cc(OC)ccc2-n2c(C)nnc21 (racemic) for me?
Result: 1.0

Request: Can you look up the measured ΔTm Brd2(2)*(Tryp370-His) of Cc1cccc(Cl)c1S(=O)(=O)Nc1ccc2c(c1)CN(C)C(=O)N2 for me?
Result: 0.8

Request: Can you look up the measured ΔTm Brd2(2)*(Tryp370-His) of COC(=O)CC1N=C(c2cccc3[nH]ccc23)c2cc(OC)ccc2-n2c(C)nnc21 (stereo not shown) for me?
Result: 2.7

Request: Can you look up the measured ΔTm Brd2(2)*(Tryp370-His) of COC(=O)CC1N=C(c2cc(C)ccc2C)c2cc(OC)ccc2-n2c(C)nnc21 (racemic) for me?
Result: −0.1

Request: Can you look up the measured ΔTm Brd2(2)*(Tryp370-His) of CN1Cc2cc(NS(=O)(=O)c3ccccc3-c3ccccc3)ccc2NC1=O for me?
Result: 0.5

Request: Can you look up the measured ΔTm Brd2(2)*(Tryp370-His) of COC(=O)CC1N=C(c2cc(Cl)ccc2Cl)c2cc(OC)ccc2-n2c(C)nnc21 (stereo not shown) for me?
Result: −0.4

Request: Can you look up the measured ΔTm Brd2(2)*(Tryp370-His) of COC(=O)CC1N=C(c2ccc(Cl)cc2C)c2cc(OC)ccc2-n2c(C)nnc21 (racemic) for me?
Result: 1.1

Request: Can you look up the measured ΔTm Brd2(2)*(Tryp370-His) of COc1ccccc1S(=O)(=O)Nc1ccc2c(c1)CN(C)C(=O)N2 [PFI-1, reference compound] for me?
Result: 1.8

Request: Can you look up the measured ΔTm Brd2(2)*(Tryp370-His) of Cc1cc(C)c(S(=O)(=O)Nc2ccc3c(c2)CN(C)C(=O)N3)c(C)c1 for me?
Result: 0.2

Request: Can you look up the measured ΔTm Brd2(2)*(Tryp370-His) of CN1Cc2cc(NS(=O)(=O)c3c(Cl)cccc3Cl)ccc2NC1=O for me?
Result: 0.3
